- target-or-test-system: α4β7 integrin (Homo sapiens, UniProt P13612+P26010)
- Construct: a cell line RPMI-8866, which is known to express α4β7 integrin; endogenous in cells; host or cells: RPMI-8866 (human B cell line)
- Sequence (P13612 34-1032): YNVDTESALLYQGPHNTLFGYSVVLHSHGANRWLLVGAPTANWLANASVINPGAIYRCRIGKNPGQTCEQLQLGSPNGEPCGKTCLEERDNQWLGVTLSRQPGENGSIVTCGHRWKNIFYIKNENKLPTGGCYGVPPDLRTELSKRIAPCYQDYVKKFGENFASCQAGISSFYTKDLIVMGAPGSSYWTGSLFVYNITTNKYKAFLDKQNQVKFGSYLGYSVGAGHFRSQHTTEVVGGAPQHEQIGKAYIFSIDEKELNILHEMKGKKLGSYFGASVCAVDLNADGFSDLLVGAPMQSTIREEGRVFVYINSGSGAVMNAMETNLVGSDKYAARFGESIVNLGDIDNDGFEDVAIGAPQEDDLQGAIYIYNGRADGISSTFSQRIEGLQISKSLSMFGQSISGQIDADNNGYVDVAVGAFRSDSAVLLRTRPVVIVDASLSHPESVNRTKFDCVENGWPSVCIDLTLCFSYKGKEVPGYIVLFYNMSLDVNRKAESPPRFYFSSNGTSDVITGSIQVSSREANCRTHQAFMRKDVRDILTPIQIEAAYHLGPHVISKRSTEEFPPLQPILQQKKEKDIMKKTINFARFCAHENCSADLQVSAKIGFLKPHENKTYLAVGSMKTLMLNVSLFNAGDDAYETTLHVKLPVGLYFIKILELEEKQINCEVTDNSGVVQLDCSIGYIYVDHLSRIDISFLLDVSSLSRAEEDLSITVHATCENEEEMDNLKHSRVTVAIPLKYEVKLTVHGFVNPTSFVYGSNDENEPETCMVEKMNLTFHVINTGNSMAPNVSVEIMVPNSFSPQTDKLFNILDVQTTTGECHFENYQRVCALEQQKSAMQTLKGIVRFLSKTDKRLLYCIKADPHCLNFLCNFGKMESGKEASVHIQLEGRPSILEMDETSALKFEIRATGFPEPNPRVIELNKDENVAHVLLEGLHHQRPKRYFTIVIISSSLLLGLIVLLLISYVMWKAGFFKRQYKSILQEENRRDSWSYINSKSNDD
- Sequence (P26010 20-798): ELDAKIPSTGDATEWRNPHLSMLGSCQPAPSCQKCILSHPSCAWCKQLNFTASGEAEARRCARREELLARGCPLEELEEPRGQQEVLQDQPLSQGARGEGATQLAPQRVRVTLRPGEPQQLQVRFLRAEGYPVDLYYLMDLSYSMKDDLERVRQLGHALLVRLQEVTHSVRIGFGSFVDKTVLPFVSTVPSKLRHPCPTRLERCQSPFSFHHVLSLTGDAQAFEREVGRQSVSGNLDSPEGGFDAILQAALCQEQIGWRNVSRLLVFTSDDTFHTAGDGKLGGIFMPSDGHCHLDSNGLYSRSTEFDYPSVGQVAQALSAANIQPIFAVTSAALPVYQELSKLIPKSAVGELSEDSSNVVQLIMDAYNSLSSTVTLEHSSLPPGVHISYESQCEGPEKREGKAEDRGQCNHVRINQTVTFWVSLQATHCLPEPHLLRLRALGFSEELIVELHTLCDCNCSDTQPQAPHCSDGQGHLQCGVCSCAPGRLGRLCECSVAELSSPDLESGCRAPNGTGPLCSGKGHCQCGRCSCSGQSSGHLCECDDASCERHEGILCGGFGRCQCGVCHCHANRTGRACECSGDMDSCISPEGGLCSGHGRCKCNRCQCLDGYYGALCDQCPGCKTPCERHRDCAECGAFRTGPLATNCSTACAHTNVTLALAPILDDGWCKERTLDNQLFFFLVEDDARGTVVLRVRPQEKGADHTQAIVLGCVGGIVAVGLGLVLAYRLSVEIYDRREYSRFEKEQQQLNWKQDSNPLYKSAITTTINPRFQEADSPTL
- method-notes: MAdCAM-1/α4β7 integrin binding inhibitory activity evaluation test (RPMI-8866 cells binding to MAdCAM-1/Fc)
- Type: cell-based
- test-context: recombinant mouse MAdCAM-1/Fc, no serum
Field: class. Source value: IC50. Ranges: lowest: < 0.4 nM; middle: ≥ 0.4 nM and < 0.9 nM; highest: ≥ 0.9 nM

{"molecule": "Cn1c(=O)n(-c2ccc(C[C@H](NC(=O)c3cc(F)c(NS(=O)(=O)c4ccc(NC(=O)C5(c6ccccc6)CC5)cc4)cc3F)C(=O)O)cn2)c(=O)c2ccncc21 [Compound A29]", "group-label": "highest"}
{"molecule": "Cc1cn(C)c(=O)n(-c2ccc(C[C@H](NC(=O)c3cc(F)c(NS(=O)(=O)c4ccc(NC(=O)C5(C(F)(F)F)CC5)cc4)cc3F)C(=O)O)cn2)c1=O [Compound A56]", "group-label": "highest"}
{"molecule": "Cn1c(=O)n(-c2ccc(C[C@H](NC(=O)c3cc(F)c(NS(=O)(=O)c4ccc(NC(=O)c5ccncc5)cc4)cc3F)C(=O)O)cc2)c(=O)c2ccncc21 [Compound A7]", "group-label": "lowest"}
{"molecule": "Cc1cn(C)c(=O)n(-c2ccc(C[C@H](NC(=O)c3cc(F)c(NS(=O)(=O)c4ccc(NC(=O)C(C)(C)CO)cc4)cc3F)C(=O)O)cn2)c1=O [Compound A63]", "group-label": "highest"}
{"molecule": "Cc1c(C)n(C)c(=O)n(-c2ccc(C[C@H](NC(=O)c3cc(F)c(NS(=O)(=O)c4ccc(NC(=O)C(C)(C)C)s4)cc3F)C(=O)O)cc2)c1=O [Compound A10]", "group-label": "lowest"}
{"molecule": "COC1(C(=O)Nc2ccc(S(=O)(=O)Nc3cc(F)c(C(=O)N[C@@H](Cc4ccc(-n5c(=O)c6ccncc6n(C)c5=O)cc4)C(=O)O)cc3F)cc2)CC1 [Compound A16]", "group-label": "middle"}
{"molecule": "Cn1c(C(F)(F)F)cc(=O)n(-c2ccc(C[C@H](NC(=O)c3cc(F)c(NS(=O)(=O)c4ccc(NC(=O)C(C)(C)C)cc4)cc3F)C(=O)O)cn2)c1=O [Compound A66]", "group-label": "highest"}
{"molecule": "Cc1c(C)n(C)c(=O)n(-c2ccc(C[C@H](NC(=O)c3cc(F)c(NS(=O)(=O)c4ccc(NC(=O)C(C)(C)C)cn4)cc3F)C(=O)O)cn2)c1=O [Compound A32]", "group-label": "middle"}
{"molecule": "Cn1c(=O)n(-c2ccc(C[C@H](NC(=O)c3cc(F)c(NS(=O)(=O)c4ccc(NC(=O)C(C)(C)C)cc4)cc3F)C(=O)O)cc2)c(=O)c2ccncc21 [Compound A1]", "group-label": "lowest"}
